# tested target: rat GCPII (Rattus norvegicus, UniProt P70627)
# Construct: expressed in transfected cells
# Sequence (P70627 whole entry): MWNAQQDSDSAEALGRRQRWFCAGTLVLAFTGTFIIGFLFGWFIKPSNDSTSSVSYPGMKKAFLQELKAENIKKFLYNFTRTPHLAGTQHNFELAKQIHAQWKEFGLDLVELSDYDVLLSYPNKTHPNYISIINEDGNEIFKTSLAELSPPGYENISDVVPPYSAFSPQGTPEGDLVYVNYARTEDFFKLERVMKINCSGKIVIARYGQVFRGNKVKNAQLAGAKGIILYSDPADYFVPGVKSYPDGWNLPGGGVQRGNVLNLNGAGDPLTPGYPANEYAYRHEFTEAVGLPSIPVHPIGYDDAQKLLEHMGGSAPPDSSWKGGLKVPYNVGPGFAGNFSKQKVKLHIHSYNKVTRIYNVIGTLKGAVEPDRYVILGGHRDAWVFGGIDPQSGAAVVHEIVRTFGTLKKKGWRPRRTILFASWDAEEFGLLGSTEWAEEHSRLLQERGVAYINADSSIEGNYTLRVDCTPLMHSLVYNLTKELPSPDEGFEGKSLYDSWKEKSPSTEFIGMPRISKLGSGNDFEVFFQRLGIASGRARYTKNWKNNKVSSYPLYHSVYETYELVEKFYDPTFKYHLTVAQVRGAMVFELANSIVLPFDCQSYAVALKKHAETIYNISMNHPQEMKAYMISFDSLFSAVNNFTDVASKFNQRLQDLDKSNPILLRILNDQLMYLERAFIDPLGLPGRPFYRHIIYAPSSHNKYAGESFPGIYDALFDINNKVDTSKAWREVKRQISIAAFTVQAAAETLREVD
# assay protocol: Inhibition of rat GCPII stably expressed in CHO cells
# Format: biochemical
# reported conditions: read-out: IC50 against expressed rat GCPII
parameter: IC50 (nM)
Quick reminder: number only, in nM, skip the unit.

- sample smiles: "O=C(O)CC[C@H](NC(=O)N[C@@H](CS)C(=O)O)C(=O)O"
  tested target: "rat GCPII (Rattus norvegicus, UniProt P70627)"
  uom: "nM"
  IC50: 72.4
- sample smiles: "O=C(O)C[C@H](NC(=O)N[C@@H](CC(=O)O)C(=O)O)C(=O)O"
  tested target: "rat GCPII (Rattus norvegicus, UniProt P70627)"
  uom: "nM"
  IC50: 3800
- sample smiles: "CC(C)(C)SC[C@H](NC(=O)N[C@@H](CCC(=O)O)C(=O)O)C(=O)O"
  tested target: "rat GCPII (Rattus norvegicus, UniProt P70627)"
  uom: "nM"
  IC50: 101

Kindly note the recorded IC50 for `O=C(O)CC[C@H](NC(=O)N[C@@H](CCC(=O)O)C(=O)O)C(=O)O` , which is 47
